Provide the recorded SUV for the entries that follow.
experiment: Drug uptake in iv dosed BALB/c athymic nude mouse kidney xenografted with human LNCaP cells treated with 68Ga-labeled compound measured after 1 hr by microPET imaging analysis; type: ADME, organism-based; conditions: in vivo
Numbers only.

* O=C(O)CC[C@H](NC(=O)N[C@@H](CCCCNC(=O)[C@H](Cc1ccc2ccccc2c1)NC(=O)CCCCCNC(=O)CN1CCN(CC(=O)O)CCN(CC(=O)O)CCN(CC(=O)O)CC1)C(=O)O)C(=O)O | 2.26

Attention now turns to another entry.
Look at this compound and give its reported SUV. O=C(O)CC[C@H](NC(=O)N[C@@H](CCCCNC(=O)[C@H](Cc1ccc2ccccc2c1)NC(=O)[C@H]1CC[C@H](CNC(=O)CN2CCN(CC(=O)O)CCN(CC(=O)O)CCN(CC(=O)O)CC2)CC1)C(=O)O)C(=O)O [VIPIVOTIDE TETRAXETAN] 2.87

###

target: Glutamate carboxypeptidase 2 (Homo sapiens); experiment: Binding affinity to PSMA in human LNCaP cells after 45 mins in presence of 68Ga-labeled PSMA-10 by gamma counting assay
Sequence (Q04609 whole entry): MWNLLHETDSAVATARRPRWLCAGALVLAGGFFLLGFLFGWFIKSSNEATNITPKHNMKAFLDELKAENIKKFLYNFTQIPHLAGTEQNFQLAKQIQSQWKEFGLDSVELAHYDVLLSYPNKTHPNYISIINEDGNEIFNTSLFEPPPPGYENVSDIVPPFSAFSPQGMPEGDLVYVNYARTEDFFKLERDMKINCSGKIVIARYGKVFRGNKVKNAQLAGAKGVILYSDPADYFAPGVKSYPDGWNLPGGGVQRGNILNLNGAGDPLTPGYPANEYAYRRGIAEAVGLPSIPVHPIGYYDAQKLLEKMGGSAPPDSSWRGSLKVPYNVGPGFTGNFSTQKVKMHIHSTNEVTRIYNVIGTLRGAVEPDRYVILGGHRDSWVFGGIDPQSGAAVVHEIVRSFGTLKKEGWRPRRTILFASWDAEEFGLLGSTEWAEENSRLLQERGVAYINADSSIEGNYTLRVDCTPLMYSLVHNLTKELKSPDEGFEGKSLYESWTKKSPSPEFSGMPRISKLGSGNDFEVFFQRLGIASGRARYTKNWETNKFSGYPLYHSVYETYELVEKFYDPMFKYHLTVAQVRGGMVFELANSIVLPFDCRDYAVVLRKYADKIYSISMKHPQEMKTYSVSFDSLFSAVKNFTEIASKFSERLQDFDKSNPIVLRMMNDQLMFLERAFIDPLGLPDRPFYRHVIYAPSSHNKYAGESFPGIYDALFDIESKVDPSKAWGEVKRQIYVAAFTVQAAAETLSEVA
measurement type: Ki

- O=C(O)CC[C@H](NC(=O)N[C@@H](CCCCNC(=O)c1ccc(CNC(=O)CN2CCN(CC(=O)O)CCN(CC(=O)O)CCN(CC(=O)O)CC2)cc1)C(=O)O)C(=O)O: 1.97 nM

Report Ki for each item below.
1. O=C(O)CC[C@H](NC(=O)N[C@@H](CCCCNC(=O)[C@H]1CC[C@H](CNC(=O)[C@H]2CC[C@H](CNC(=O)[C@H]3CC[C@H](CNC(=O)CN4CCN(CC(=O)O)CCN(CC(=O)O)CCN(CC(=O)O)CC4)CC3)CC2)CC1)C(=O)O)C(=O)O
2. O=C(O)CC[C@H](NC(=O)N[C@@H](CCCCNC(=O)CCCCCNC(=O)c1ccc(CNC(=O)CN2CCN(CC(=O)O)CCN(CC(=O)O)CCN(CC(=O)O)CC2)cc1)C(=O)O)C(=O)O
3. O=C(O)CC[C@H](NC(=O)N[C@@H](CCCCNC(=O)[C@H]1CC[C@H](CNC(=O)c2ccc(CNC(=O)CN3CCN(CC(=O)O)CCN(CC(=O)O)CCN(CC(=O)O)CC3)cc2)CC1)C(=O)O)C(=O)O
4. O=C(O)CC[C@H](NC(=O)N[C@@H](CCCCNC(=O)c1ccc(CNC(=O)c2ccc(CNC(=O)CN3CCN(CC(=O)O)CCN(CC(=O)O)CCN(CC(=O)O)CC3)cc2)cc1)C(=O)O)C(=O)O

19.4 nM
15.3 nM
24.7 nM
7.51 nM

###

Give measured specific internalization (% of added activity per 10^6 cells) for each item. Keep answers brief.
molecular target: Glutamate carboxypeptidase 2 (Homo sapiens, UniProt Q04609); assay: Inhibition of PSMA in human LNCaP cells assessed as specific internalization per 10^6 cells using 177Lu-labeled compound after 45 mins by gamma counting analysis; type: cell-based
Sequence (Q04609 whole entry, looked up): as the sequence (Q04609 whole entry) above
Answers are plain numbers, in %.

The cases that follow already have their specific internalization (% of added activity per 10^6 cells) on record.
* O=C(O)CCc1ccc(O)c(CN(CCN(CC(=O)O)Cc2cc(CCC(=O)NCCCCCC(=O)NCCCC[C@H](NC(=O)N[C@@H](CCC(=O)O)C(=O)O)C(=O)O)ccc2O)CC(=O)O)c1 [GOZETOTIDE] | 9.47
* O=C(O)CC[C@H](NC(=O)N[C@@H](CCCCNC(=O)CCCCCNC(=O)c1ccc(CNC(=O)CN2CCN(CC(=O)O)CCN(CC(=O)O)CCN(CC(=O)O)CC2)cc1)C(=O)O)C(=O)O | 2.11
* O=C(O)CC[C@H](NC(=O)N[C@@H](CCCCNC(=O)[C@H](Cc1ccc2ccccc2c1)NC(=O)CN1CCN(CC(=O)O)CCN(CC(=O)O)CCN(CC(=O)O)CC1)C(=O)O)C(=O)O | 1.77
* O=C(O)CC[C@H](NC(=O)N[C@@H](CCCCNC(=O)[C@H](Cc1cccc2ccccc12)NC(=O)[C@H]1CC[C@H](CNC(=O)CN2CCN(CC(=O)O)CCN(CC(=O)O)CCN(CC(=O)O)CC2)CC1)C(=O)O)C(=O)O | 0.9
* O=C(O)CC[C@H](NC(=O)N[C@@H](CCCCNC(=O)[C@H](Cc1ccc(-c2ccccc2)cc1)NC(=O)CN1CCN(CC(=O)O)CCN(CC(=O)O)CCN(CC(=O)O)CC1)C(=O)O)C(=O)O | 2.22

Look up specific internalization (% of added activity per 10^6 cells) for the entries below, preserving their order.
1. O=C(O)CC[C@H](NC(=O)N[C@@H](CCCCNC(=O)c1ccc(CNC(=O)CN2CCN(CC(=O)O)CCN(CC(=O)O)CCN(CC(=O)O)CC2)cc1)C(=O)O)C(=O)O
2. O=C(O)CC[C@H](NC(=O)N[C@@H](CCCCNC(=O)[C@H]1CC[C@H](CNC(=O)c2ccc(CNC(=O)CN3CCN(CC(=O)O)CCN(CC(=O)O)CCN(CC(=O)O)CC3)cc2)CC1)C(=O)O)C(=O)O
3. O=C(O)CC[C@H](NC(=O)N[C@@H](CCCCNC(=O)[C@H](Cc1ccc2ccccc2c1)NC(=O)CCCCCNC(=O)CN1CCN(CC(=O)O)CCN(CC(=O)O)CCN(CC(=O)O)CC1)C(=O)O)C(=O)O
4. O=C(O)CC[C@H](NC(=O)N[C@@H](CCCCNC(=O)[C@@H](Cc1ccc2ccccc2c1)NC(=O)[C@H]1CC[C@H](CNC(=O)CN2CCN(CC(=O)O)CCN(CC(=O)O)CCN(CC(=O)O)CC2)CC1)C(=O)O)C(=O)O

5.11
2.7
2.99
7.18
